tested on: MDA-MB-231 cells; assay: cells; assay type: cell-based, human; details: MTT, 24 h; read-out: Cytotoxicity, IC50, MDA-MB-231
pIC50: −log10 of the molar value.
assay_metric: pIC50

I have this compound here, N.N.[Cl][Pt][Cl] [cisplatin, reference compound] , and I need its recorded pIC50. ≤ 3.80

---

experiment: in vitro; format: cell-based, human; conditions: human, 48 h; read-out: Cytotoxicity, IC50, 48 h, MCF-10A
assay_metric: IC50
Number first, unit second.

compound	IC50
CO[C@@H]1[C@@H](O)[C@H](O[C@@H]2[C@@H](O)[C@H](O[C@H]3[C@H](O)[C@@H](O[C@@H]4OC[C@@H](O)[C@H](O)[C@H]4O)[C@H](O[C@H]4[C@H](O[C@H]5CC[C@]6(C)C7CC[C@]8(C)[C@@H]([C@@](C)(O)[C@H](O)CC=C(C)C)CC[C@@]8(C)C7=CC[C@H]6C5(C)C)OC[C@@H](OS(=O)(=O)[O-])[C@@H]4O)O[C@@H]3C)O[C@H](COS(=O)(=O)[O-])[C@H]2O)O[C@H](CO)[C@H]1O.[Na+].[Na+] (stereo partly drawn) [Conicospermiumoside A3-1 (1)]	30.4 µM
CO[C@@H]1[C@@H](O)[C@H](O[C@@H]2[C@@H](O)[C@H](O[C@H]3[C@H](O)[C@@H](O[C@@H]4OC[C@@H](O)[C@H](O)[C@H]4O)[C@H](O[C@H]4[C@H](O[C@H]5CC[C@]6(C)C7=CC[C@]8(C)[C@@H]([C@@](C)(O)C(=O)CC=C(C)C)CC[C@@]8(C)C7CC[C@H]6C5(C)C)OC[C@@H](OS(=O)(=O)[O-])[C@@H]4O)O[C@@H]3C)O[C@H](COS(=O)(=O)[O-])[C@H]2O)O[C@H](COS(=O)(=O)[O-])[C@H]1O.[Na+].[Na+].[Na+] (stereo partly drawn) [Conicospermiumoside A7-1 (4)]	35.5 µM

I have this compound here, CO[C@@H]1[C@@H](O)[C@H](O[C@@H]2[C@@H](O)[C@H](O[C@H]3[C@H](O)[C@@H](O[C@@H]4OC[C@@H](O)[C@H](O)[C@H]4O)[C@H](O[C@H]4[C@H](O[C@H]5CC[C@]6(C)C7CC[C@]8(C)[C@@H]([C@@](C)(O)C(=O)CC=C(C)C)CC[C@@]8(C)C7=CC[C@H]6C5(C)C)OC[C@@H](OS(=O)(=O)[O-])[C@@H]4O)O[C@@H]3C)O[C@H](COS(=O)(=O)[O-])[C@H]2O)O[C@H](CO)[C@H]1O.[Na+].[Na+] (stereo partly drawn) [Conicospermiumoside A3-3 (3)] , and I need its recorded IC50. 10.6 µM

---

Below is a list of entries, each paired with its recorded IC50 value.
test: in vitro; format: cell-based, human; conditions: human, MTT, 24 h; read-out: Cytotoxicity, IC50, MCF-10A
Record the value in µM, omitting the unit from your answer.

Consider the worked cases shown below.
compound	obs_value
CO[C@@H]1[C@@H](O)[C@H](O[C@@H]2[C@@H](O)[C@H](O[C@H]3[C@H](O)[C@@H](O[C@@H]4OC[C@@H](O)[C@H](O)[C@H]4O)[C@H](O[C@H]4[C@H](OC5CC[C@]6(C)[C@H]7CCC89C(=O)O[C@@](C)(CCCC(C)C)C8[C@@H](OC(C)=O)C[C@@]9(C)C7=CC[C@H]6C5(C)C)OC[C@@H](OS(=O)(=O)O)[C@@H]4O)O[C@@H]3C)OC[C@H]2O)O[C@H](CO)[C@H]1O (stereo partly drawn) [Frondoside A (10), frondoside A]	11
COC1C(O)C(CO)OC(OC2C(O)COC(OC3C(C)OC(OC4C(OC5CCC6(C)C7CCC89C(=O)OC(C)(CC(=O)CC(C)C)C8C(OC(C)=O)CC9(C)C7=CCC6C5(C)C)OCC(OS(=O)(=O)O)C4O)C(O)C3O)C2O)C1O (stereo not drawn) [Okhotoside A1-1 (7), okhotoside A1-1]	7.95

Now for another entry.
I have this compound here, CO[C@@H]1[C@@H](O)[C@H](O[C@@H]2[C@@H](O)[C@H](O[C@H]3[C@H](O)[C@@H](O[C@@H]4OC[C@@H](O)[C@H](O)[C@H]4O)[C@H](O[C@H]4[C@H](O[C@H]5CC[C@]6(C)C7CC[C@]8(C)[C@@H]([C@@](C)(O)C(=O)CC=C(C)C)CC[C@@]8(C)C7=CC[C@H]6C5(C)C)OC[C@@H](OS(=O)(=O)[O-])[C@@H]4O)O[C@@H]3C)O[C@H](COS(=O)(=O)[O-])[C@H]2O)O[C@H](CO)[C@H]1O.[Na+].[Na+] (stereo partly drawn) [Conicospermiumoside A3-3 (3)] , and I need its recorded IC50. 11.4
